Values compiled from the supplement of paper PMC7877785.

# Test Summary: self-splicing fitness, log relative to wild type (ln ratio); higher = more splicing; Tetrahymena group I intron in knt gene, E. coli kanamycin selection, DiMSum; sequences stand for … in CUCUCU…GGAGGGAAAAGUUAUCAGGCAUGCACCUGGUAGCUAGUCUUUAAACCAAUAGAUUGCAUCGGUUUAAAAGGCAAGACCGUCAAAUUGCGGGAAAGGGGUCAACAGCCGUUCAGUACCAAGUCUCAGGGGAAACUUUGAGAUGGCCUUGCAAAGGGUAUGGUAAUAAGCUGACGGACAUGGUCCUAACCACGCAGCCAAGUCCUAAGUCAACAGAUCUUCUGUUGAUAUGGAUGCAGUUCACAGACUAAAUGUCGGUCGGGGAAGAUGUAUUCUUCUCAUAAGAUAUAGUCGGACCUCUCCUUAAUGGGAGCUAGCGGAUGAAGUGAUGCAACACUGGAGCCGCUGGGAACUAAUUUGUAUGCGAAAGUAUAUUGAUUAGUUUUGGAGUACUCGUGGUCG;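 also: selection with 25 µg/mL kanamycin versus none on LB agar overnight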
# Run Parameters: 30 °C
Parameter threshold = -1. Response is True when self-splicing fitness (ln) meets or exceeds it, else False.

(Q) For this sequence, is measured self-splicing fitness (ln) -1 or higher? CGGAAGCAAUAUUACGUUAG
(A) False

(Q) For this sequence, is measured self-splicing fitness (ln) -1 or higher? CCAGAGCAAUAUUACGAAUU
(A) False

(Q) For this sequence, is measured self-splicing fitness (ln) -1 or higher? AUAAAGCAAUAUUACGCUGA
(A) False

(Q) For this sequence, is measured self-splicing fitness (ln) -1 or higher? UUCGAGCAAUAUUACGUUCU
(A) False

(Q) For this sequence, is measured self-splicing fitness (ln) -1 or higher? AAUCAGCAAUAUUACGAUAC
(A) True

(Q) For this sequence, is measured self-splicing fitness (ln) -1 or higher? UAGAAGCAAUAUUACGUGGG
(A) False

(Q) For this sequence, is measured self-splicing fitness (ln) -1 or higher? GCUCAGCAAUAUUACGACCA
(A) True

(Q) For this sequence, is measured self-splicing fitness (ln) -1 or higher? GGACAGCAAUAUUACGCUUC
(A) False

(Q) For this sequence, is measured self-splicing fitness (ln) -1 or higher? GUUUAGCAAUAUUACGAUAU
(A) False

(Q) For this sequence, is measured self-splicing fitness (ln) -1 or higher? GUUCAGCAAUAUUACGAUCU
(A) True

(Q) For this sequence, is measured self-splicing fitness (ln) -1 or higher? GCAUAGCAAUAUUACGGACU
(A) True

(Q) For this sequence, is measured self-splicing fitness (ln) -1 or higher? GCCCAGCAAUAUUACGUGCC
(A) False

(Q) For this sequence, is measured self-splicing fitness (ln) -1 or higher? GUCAAGCAAUAUUACGUGAG
(A) False

(Q) For this sequence, is measured self-splicing fitness (ln) -1 or higher? AAUCAGCAAUAUUACGAGAU
(A) False

(Q) For this sequence, is measured self-splicing fitness (ln) -1 or higher? GUGUAGCAAUAUUACGGGAU
(A) False

(Q) For this sequence, is measured self-splicing fitness (ln) -1 or higher? GACAAGCAAUAUUACGUACU
(A) False

(Q) For this sequence, is measured self-splicing fitness (ln) -1 or higher? AUGAAGCAAUAUUACGACUG
(A) True

(Q) For this sequence, is measured self-splicing fitness (ln) -1 or higher? ACGUAGCAAUAUUACGUCGA
(A) False

(Q) For this sequence, is measured self-splicing fitness (ln) -1 or higher? AUAGAGCAAUAUUACGAAGU
(A) True

(Q) For this sequence, is measured self-splicing fitness (ln) -1 or higher? GACCAGCAAUAUUACGGUCU
(A) False

(Q) For this sequence, is measured self-splicing fitness (ln) -1 or higher? ACUGAGCAAUAUUACGUGAU
(A) False

(Q) For this sequence, is measured self-splicing fitness (ln) -1 or higher? AGACAGCAAUAUUACGUGCC
(A) True

(Q) For this sequence, is measured self-splicing fitness (ln) -1 or higher? CAUUAGCAAUAUUACGGGUA
(A) False

(Q) For this sequence, is measured self-splicing fitness (ln) -1 or higher? CACUAGCAAUAUUACGCGAU
(A) False

(Q) For this sequence, is measured self-splicing fitness (ln) -1 or higher? GUUAAGCAAUAUUACGUUCU
(A) False

(Q) For this sequence, is measured self-splicing fitness (ln) -1 or higher? CGAGAGCAAUAUUACGUUAU
(A) False

(Q) For this sequence, is measured self-splicing fitness (ln) -1 or higher? UAGUAGCAAUAUUACGUAGU
(A) False

(Q) For this sequence, is measured self-splicing fitness (ln) -1 or higher? CACAAGCAAUAUUACGGGGA
(A) False

(Q) For this sequence, is measured self-splicing fitness (ln) -1 or higher? UAGCAGCAAUAUUACGGUUA
(A) True

(Q) For this sequence, is measured self-splicing fitness (ln) -1 or higher? CUUCAGCAAUAUUACGUUGU
(A) False

(Q) For this sequence, is measured self-splicing fitness (ln) -1 or higher? CUCAAGCAAUAUUACGCGCG
(A) False

(Q) For this sequence, is measured self-splicing fitness (ln) -1 or higher? CGUGAGCAAUAUUACGCACG
(A) False

(Q) For this sequence, is measured self-splicing fitness (ln) -1 or higher? CCUGAGCAAUAUUACGAGGA
(A) False

(Q) For this sequence, is measured self-splicing fitness (ln) -1 or higher? UAACAGCAAUAUUACGCGUC
(A) False
